# target.of.assay: COX-2 (Homo sapiens, UniProt P35354)
# Construct: purchased Cayman Chemical Company, Ann Arbor, MI, USA
# Sequence (P35354 18-604): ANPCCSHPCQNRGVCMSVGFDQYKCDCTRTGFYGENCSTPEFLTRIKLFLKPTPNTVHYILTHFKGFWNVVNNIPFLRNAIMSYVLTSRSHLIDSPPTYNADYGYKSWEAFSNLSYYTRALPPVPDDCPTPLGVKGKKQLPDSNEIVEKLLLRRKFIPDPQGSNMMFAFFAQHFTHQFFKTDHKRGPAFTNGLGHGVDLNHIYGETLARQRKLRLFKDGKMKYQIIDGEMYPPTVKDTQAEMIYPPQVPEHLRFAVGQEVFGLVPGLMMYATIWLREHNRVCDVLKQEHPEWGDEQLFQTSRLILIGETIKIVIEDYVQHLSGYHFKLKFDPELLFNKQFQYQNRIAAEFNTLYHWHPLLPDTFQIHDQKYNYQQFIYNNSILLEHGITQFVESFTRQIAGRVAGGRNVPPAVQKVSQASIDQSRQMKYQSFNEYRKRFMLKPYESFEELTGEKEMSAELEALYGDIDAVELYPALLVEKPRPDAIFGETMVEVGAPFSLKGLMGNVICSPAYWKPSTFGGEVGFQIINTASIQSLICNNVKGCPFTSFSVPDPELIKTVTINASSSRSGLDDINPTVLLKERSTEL
# method.description: COX colorimetric inhibitor screening assay, COX-2
# Type: biochemical
# condition.description: ratio of IC50 COX-2 / IC50 COX-1
# Protocol: The compounds were studied for their potencies to inhibit COX-1 and COX-2 enzymes by the colorimetric inhibitor screening assay. A COX Colorimetric Inhibitor Screening Assay Kit, produced by Cayman Chemical Company, Ann Arbor, MI, USA, was used. […] To be sure that 100% enzymatic activity was achieved each sample was measured 3 times. The probes were measured after two minutes of incubation with tested compounds in the comparison to the initial activity of enzyme.
observation.type: COX-2/COX-1 Selectivity Ratio
One number for each entry.

Previously resolved entries follow.
molecule.smiles: Cc1ccc(C=NNC(=O)Cn2nc(CNC(=O)c3c(C)cc(C)nc3S)oc2=S)cc1
observation.type: COX-2/COX-1 Selectivity Ratio
numeric.readout: 1.25
//
molecule.smiles: Cc1cc(C)c(C(=O)NCc2nn(CC(=O)NN=Cc3cccc(Cl)c3)c(=S)o2)c(S)n1
observation.type: COX-2/COX-1 Selectivity Ratio
numeric.readout: 1.36
//
molecule.smiles: Cc1cc(C)c(C(=O)NCc2nn(CC(=O)NN=Cc3ccc(F)cc3)c(=S)o2)c(S)n1
observation.type: COX-2/COX-1 Selectivity Ratio
numeric.readout: 1.20
//
molecule.smiles: Cc1cc(C)c(C(=O)NCc2nn(CC(=O)NN=Cc3ccc(C(F)(F)F)cc3)c(=S)o2)c(S)n1
observation.type: COX-2/COX-1 Selectivity Ratio
numeric.readout: 1.97

For every item in the list below, what is its measured COX-2/COX-1 Selectivity Ratio?
1. Cc1cc(C)c(C(=O)NCc2nn(CC(=O)NN=Cc3ccccc3)c(=S)o2)c(S)n1
2. Cc1cc(C)c(C(=O)NCc2nn(CC(=O)NN=Cc3ccc(C#N)cc3)c(=S)o2)c(S)n1

Response:
2.53
0.67
